Catalogue of IC50 readings, one per entry.
Molecular target: human α4β2 nAChRs (Homo sapiens, UniProt P17787+P43681)
Construct: expressed in transfected cells; the efflux text says only stably transfected cells
Sequence (P43681 29-627 limits assumed): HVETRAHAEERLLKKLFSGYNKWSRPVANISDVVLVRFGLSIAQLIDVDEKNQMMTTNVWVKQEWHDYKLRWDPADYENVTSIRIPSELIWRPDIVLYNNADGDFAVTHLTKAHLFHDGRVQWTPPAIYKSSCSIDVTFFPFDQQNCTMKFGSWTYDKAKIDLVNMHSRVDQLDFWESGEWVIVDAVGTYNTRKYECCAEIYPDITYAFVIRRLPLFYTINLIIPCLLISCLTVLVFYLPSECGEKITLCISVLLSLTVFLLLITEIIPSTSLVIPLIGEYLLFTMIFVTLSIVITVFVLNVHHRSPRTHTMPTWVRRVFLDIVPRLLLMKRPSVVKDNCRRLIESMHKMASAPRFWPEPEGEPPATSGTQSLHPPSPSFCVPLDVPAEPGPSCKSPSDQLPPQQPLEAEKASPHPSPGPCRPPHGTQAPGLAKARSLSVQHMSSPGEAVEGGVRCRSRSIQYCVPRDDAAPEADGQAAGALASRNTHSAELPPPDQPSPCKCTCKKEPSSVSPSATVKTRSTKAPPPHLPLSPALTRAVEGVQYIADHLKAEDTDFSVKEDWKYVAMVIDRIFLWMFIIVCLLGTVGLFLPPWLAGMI
Sequence (P17787 26-502): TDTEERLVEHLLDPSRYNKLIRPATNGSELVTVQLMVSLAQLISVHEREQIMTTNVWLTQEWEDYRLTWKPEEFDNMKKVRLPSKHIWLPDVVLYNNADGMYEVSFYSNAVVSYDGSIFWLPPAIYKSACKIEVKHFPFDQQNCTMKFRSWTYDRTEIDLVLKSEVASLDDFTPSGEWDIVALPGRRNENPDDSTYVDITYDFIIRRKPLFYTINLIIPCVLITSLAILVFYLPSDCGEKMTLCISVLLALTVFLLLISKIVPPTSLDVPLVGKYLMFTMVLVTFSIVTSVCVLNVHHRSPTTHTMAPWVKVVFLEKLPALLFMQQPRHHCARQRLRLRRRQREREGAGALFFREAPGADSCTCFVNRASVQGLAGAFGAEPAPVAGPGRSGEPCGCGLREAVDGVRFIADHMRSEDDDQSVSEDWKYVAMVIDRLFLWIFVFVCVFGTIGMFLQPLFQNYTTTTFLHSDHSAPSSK
Assay: Inhibition of nicotine-stimulated 86Rb+ efflux, cells expressing human α4β2 nAChRs
Type: cell-based
Conditions: Desensitization Potency (IC50(D,10 min), nM) α4β2, 10 min pretreatment before nicotine
PARAMETER_MEASURED: IC50 (nM)

[
  {
    "SMILES_RECORD": "CN1CCC[C@H]1COc1cncc(C#CCCCCF)c1",
    "EXPERIMENTAL_SYSTEM": "human α4β2 nAChRs (Homo sapiens, UniProt P17787+P43681)",
    "EXPERIMENTAL_RESULT": 60
  },
  {
    "SMILES_RECORD": "CN1CCC[C@H]1COc1cncc(C#CCCCCCCCCO)c1",
    "EXPERIMENTAL_SYSTEM": "human α4β2 nAChRs (Homo sapiens, UniProt P17787+P43681)",
    "EXPERIMENTAL_RESULT": 460
  },
  {
    "SMILES_RECORD": "FCCCCC#Cc1cncc(OC[C@@H]2CCN2)c1",
    "EXPERIMENTAL_SYSTEM": "human α4β2 nAChRs (Homo sapiens, UniProt P17787+P43681)",
    "EXPERIMENTAL_RESULT": 5
  }
]

----------
Molecular target: rat α3β4 nAChRs (Rattus norvegicus, UniProt P04757+P12392)
Construct: expressed in transfected cells; the efflux text says only stably transfected cells
Sequence (P04757 26-499): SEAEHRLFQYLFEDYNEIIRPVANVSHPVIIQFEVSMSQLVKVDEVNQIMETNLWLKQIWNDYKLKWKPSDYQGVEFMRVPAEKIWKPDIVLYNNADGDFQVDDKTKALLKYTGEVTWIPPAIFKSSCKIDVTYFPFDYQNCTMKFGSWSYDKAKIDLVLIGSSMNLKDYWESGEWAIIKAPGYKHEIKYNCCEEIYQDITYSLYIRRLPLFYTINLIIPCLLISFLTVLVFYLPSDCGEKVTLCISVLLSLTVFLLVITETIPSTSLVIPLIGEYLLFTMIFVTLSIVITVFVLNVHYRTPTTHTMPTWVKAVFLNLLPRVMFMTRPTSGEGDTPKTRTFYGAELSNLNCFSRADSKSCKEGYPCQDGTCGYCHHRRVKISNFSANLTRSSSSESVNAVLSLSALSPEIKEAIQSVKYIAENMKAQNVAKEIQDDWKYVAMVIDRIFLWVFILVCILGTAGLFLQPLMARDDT
Sequence (P12392 21-495): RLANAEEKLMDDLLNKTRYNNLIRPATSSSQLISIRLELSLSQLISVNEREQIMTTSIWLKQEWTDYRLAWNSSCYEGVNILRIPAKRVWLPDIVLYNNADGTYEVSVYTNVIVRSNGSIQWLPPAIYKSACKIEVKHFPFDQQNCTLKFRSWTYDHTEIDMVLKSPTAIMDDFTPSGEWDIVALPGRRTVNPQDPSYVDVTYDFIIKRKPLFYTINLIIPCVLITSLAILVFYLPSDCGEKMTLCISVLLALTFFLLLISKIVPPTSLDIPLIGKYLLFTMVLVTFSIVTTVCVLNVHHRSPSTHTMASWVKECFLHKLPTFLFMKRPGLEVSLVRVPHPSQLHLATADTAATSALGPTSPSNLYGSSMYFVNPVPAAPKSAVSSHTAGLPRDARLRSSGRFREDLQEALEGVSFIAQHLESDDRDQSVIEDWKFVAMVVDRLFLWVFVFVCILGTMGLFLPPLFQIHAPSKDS
Assay: Inhibition of nicotine-stimulated 86Rb+ efflux, cells expressing rat α3β4 nAChRs
Format: cell-based
Settings: applied simultaneously with nicotine; read-out: Acute Antagonist Potency (IC50(A), nM) α3β4
Measured IC50 accompanies every entry in the list below.

[
  {
    "COMPOUND": "CCCCC#Cc1cncc(OC[C@@H]2CCCN2C)c1 [ZW-100]",
    "IC50": "> 10000 nM"
  },
  {
    "COMPOUND": "CNc1ccccc1C(=O)OCC#Cc1cncc(OC[C@@H]2CCN2)c1 [Sazetidine-B]",
    "IC50": "> 10000 nM"
  },
  {
    "COMPOUND": "CN1CCC[C@H]1COc1cncc(C#CCCCCO)c1 [ZW-101]",
    "IC50": "> 10000 nM"
  },
  {
    "COMPOUND": "CN1CCC[C@H]1COc1cncc(C#CCCCCBr)c1 [ZW-109]",
    "IC50": "6900 nM"
  },
  {
    "COMPOUND": "CN1CCC[C@H]1COc1cncc(C#CCNC(=O)OC(C)(C)C)c1 [ZW-97]",
    "IC50": "> 10000 nM"
  },
  {
    "COMPOUND": "CN1CCC[C@H]1COc1cncc(C#Cc2ccccc2)c1 [ZW-98]",
    "IC50": "> 10000 nM"
  }
]

----------
Target: human α4β2 nAChRs (Homo sapiens, UniProt P17787+P43681)
Construct: expressed in transfected cells; the efflux text says only stably transfected cells
Assay: Inhibition of nicotine-stimulated 86Rb+ efflux, cells expressing human α4β2 nAChRs
Format: cell-based
Conditions: IC50 α4β2 nAChRs, 0 min Pretreatment, added simultaneously with 100 μM nicotine; mean ± SEM of 3 to 7 experiments
pIC50: −log10 of the molar value.

[
  {
    "SMILES_RECORD": "OCCCCC#Cc1cncc(OC[C@@H]2CCN2)c1",
    "pIC50": "< 5.00"
  }
]

----------
Reported IC50 values are given for each entry in this list.
Target: rat α3β4 nAChRs (Rattus norvegicus, UniProt P04757+P12392)
Construct: expressed in transfected cells; the efflux text says only stably transfected cells
Assay: Inhibition of nicotine-stimulated 86Rb+ efflux, cells expressing rat α3β4 nAChRs
Assay type: cell-based
Details: Desensitization Potency (IC50(D,10 min), nM) α3β4, 10 min pretreatment before nicotine
PARAMETER_MEASURED: IC50

[
  {
    "COMPOUND": "CN1CCC[C@H]1COc1cncc(C#CCO)c1 [ZW-89]",
    "EXPERIMENTAL_RESULT": "> 10000 nM"
  },
  {
    "COMPOUND": "FCCCCC#Cc1cncc(OC[C@@H]2CCCN2)c1 [ZW-102]",
    "EXPERIMENTAL_RESULT": "5400 nM"
  },
  {
    "COMPOUND": "FCCCCC#Cc1cncc(OC[C@@H]2CCN2)c1 [ZW-104]",
    "EXPERIMENTAL_RESULT": "5700 nM"
  },
  {
    "COMPOUND": "OCCCCC#Cc1cncc(OC[C@@H]2CCN2)c1 [Sazetidine-A]",
    "EXPERIMENTAL_RESULT": "> 10000 nM"
  },
  {
    "COMPOUND": "CN1CCC[C@H]1COc1cncc(C#CCCCCF)c1 [ZW-110]",
    "EXPERIMENTAL_RESULT": "> 10000 nM"
  },
  {
    "COMPOUND": "CN1CCC[C@H]1COc1cncc(C#CCCCCCCCCO)c1 [ZW-93]",
    "EXPERIMENTAL_RESULT": "3800 nM"
  },
  {
    "COMPOUND": "C#Cc1cncc(OC[C@@H]2CCCN2C)c1 [ZW-87]",
    "EXPERIMENTAL_RESULT": "> 10000 nM"
  },
  {
    "COMPOUND": "CN1CCC[C@H]1COc1cncc(C#CC(C)(C)O)c1 [ZW-88]",
    "EXPERIMENTAL_RESULT": "> 10000 nM"
  },
  {
    "COMPOUND": "CN1CCC[C@H]1COc1cncc(CCCCCCO)c1 [ZW-91]",
    "EXPERIMENTAL_RESULT": "> 10000 nM"
  }
]

----------
Measured IC50, listed per entry.
Biological target: human α4β2 nAChRs (Homo sapiens, UniProt P17787+P43681)
Construct: expressed in transfected cells; the efflux text says only stably transfected cells
Experiment: Inhibition of nicotine-stimulated 86Rb+ efflux, cells expressing human α4β2 nAChRs
Format: cell-based
Conditions: Acute Antagonist Potency (IC50(A), nM) α4β2, applied simultaneously with nicotine
PARAMETER_MEASURED: IC50

[
  {
    "MOLECULE": "CN1CCC[C@H]1COc1cncc(C#CC(C)(C)O)c1 [ZW-88]",
    "EXPERIMENTAL_RESULT": "> 10000 nM"
  },
  {
    "MOLECULE": "CN1CCC[C@H]1COc1cncc(CCCCCCO)c1 [ZW-91]",
    "EXPERIMENTAL_RESULT": "> 10000 nM"
  },
  {
    "MOLECULE": "CN1CCC[C@H]1COc1cncc(C#CCO)c1 [ZW-89]",
    "EXPERIMENTAL_RESULT": "> 10000 nM"
  },
  {
    "MOLECULE": "OCCCCC#Cc1cncc(OC[C@@H]2CCN2)c1 [Sazetidine-A]",
    "EXPERIMENTAL_RESULT": "≥ 10000 nM"
  },
  {
    "MOLECULE": "C#Cc1cncc(OC[C@@H]2CCCN2C)c1 [ZW-87]",
    "EXPERIMENTAL_RESULT": "> 10000 nM"
  },
  {
    "MOLECULE": "FCCCCC#Cc1cncc(OC[C@@H]2CCCN2)c1 [ZW-102]",
    "EXPERIMENTAL_RESULT": "> 10000 nM"
  },
  {
    "MOLECULE": "CN1CCC[C@H]1COc1cncc(C#CCCCCF)c1 [ZW-110]",
    "EXPERIMENTAL_RESULT": "> 10000 nM"
  },
  {
    "MOLECULE": "CN1CCC[C@H]1COc1cncc(C#CCCCCCCCCO)c1 [ZW-93]",
    "EXPERIMENTAL_RESULT": "7400 nM"
  },
  {
    "MOLECULE": "FCCCCC#Cc1cncc(OC[C@@H]2CCN2)c1 [ZW-104]",
    "EXPERIMENTAL_RESULT": "> 10000 nM"
  }
]

----------
Target: rat α3β4 nAChRs (Rattus norvegicus, UniProt P04757+P12392)
Construct: expressed in transfected cells; the efflux text says only stably transfected cells
Test: Inhibition of nicotine-stimulated 86Rb+ efflux, cells expressing rat α3β4 nAChRs
Format: cell-based
Conditions: read-out: Acute Antagonist Potency (IC50(A), nM) α3β4
PARAMETER_MEASURED: IC50

[
  {
    "MOLECULE": "O=c1cc(CO)cc2n1CC1CNCC2C1 (centres unmarked)",
    "EXPERIMENTAL_SYSTEM": "rat α3β4 nAChRs (Rattus norvegicus, UniProt P04757+P12392)",
    "EXPERIMENTAL_RESULT": "> 10000 nM"
  },
  {
    "MOLECULE": "Cc1cc2n(c(=O)c1)CC1CNCC2C1 (centres unmarked)",
    "EXPERIMENTAL_SYSTEM": "rat α3β4 nAChRs (Rattus norvegicus, UniProt P04757+P12392)",
    "EXPERIMENTAL_RESULT": "> 10000 nM"
  }
]
